For Cannabinoid receptor 1 (Rattus norvegicus), measured Ki is reported for the entries below.
Give the value; after it, write the unit.

Take a look at these entries with their results.
[
  {
    "smiles representation": "CCCCCCC(C)(C)c1cc(O)c2c(c1)O[C@@](C)(CCCI)[C@@H]1CC[C@@H](CO)C[C@@H]21",
    "experimental system": "Cannabinoid receptor 1 (Rattus norvegicus)",
    "readout type": "Ki",
    "experimental result": "2.2 nM"
  },
  {
    "smiles representation": "CCCCCCC(C)(C)c1cc(O)c2c(c1)O[C@@](C)(CCC)[C@@H]1CC[C@@H](CO)C[C@@H]21",
    "experimental system": "Cannabinoid receptor 1 (Rattus norvegicus)",
    "readout type": "Ki",
    "experimental result": "14.4 nM"
  },
  {
    "smiles representation": "CCCCCCC(C)(C)c1cc(O)c2c(c1)O[C@@](C)(CCO)[C@@H]1CC[C@@H](CO)C[C@@H]21",
    "experimental system": "Cannabinoid receptor 1 (Rattus norvegicus)",
    "readout type": "Ki",
    "experimental result": "2.8 nM"
  },
  {
    "smiles representation": "CCCCCCC(C)(C)c1cc(O)c2c(c1)O[C@@](C)(CC)[C@@H]1CC[C@@H](CO)C[C@@H]21",
    "experimental system": "Cannabinoid receptor 1 (Rattus norvegicus)",
    "readout type": "Ki",
    "experimental result": "11.1 nM"
  },
  {
    "smiles representation": "CCCCCCC(C)(C)c1cc(O)c2c(c1)O[C@@](C)(CO)[C@@H]1CC[C@@H](CO)C[C@@H]21",
    "experimental system": "Cannabinoid receptor 1 (Rattus norvegicus)",
    "readout type": "Ki",
    "experimental result": "1.9 nM"
  },
  {
    "smiles representation": "CCCCCCC(C)(C)c1cc(O)c2c(c1)O[C@@](C)(CCI)[C@@H]1CC[C@@H](CO)C[C@@H]21",
    "experimental system": "Cannabinoid receptor 1 (Rattus norvegicus)",
    "readout type": "Ki",
    "experimental result": "40.7 nM"
  }
]

// for each compound below, give its Ki
1. CCCCCCC(C)(C)c1cc(O)c2c(c1)OC(C)(C)[C@@H]1CC[C@@H](CO)C[C@@H]21
2. CCCCCCC(C)(C)c1cc(O)c2c(c1)O[C@@](C)(CCCO)[C@@H]1CC[C@@H](CO)C[C@@H]21

2.3 nM
2.2 nM
